Catalogue of GI50 values
System: MCF7
test: NCI tumour cell line growth inhibition, 48 h
Active and inactive are the calls of the source. Cut-off read from the data, not from the text of the source: active = GI50 up to about 1.1 µM and inactive = higher.

>  <compound>
COC1=NC(NC2OCC(O)C(O)C2O)=C(NC(C)=O)CN1C (stereo not given)

>  <GI50>
> 100 µM (inactive)

$$$$
>  <compound>
N#CC1(C#N)C2C=CC(C3CCC=C32)C1(C#N)C#N (stereo not given)

>  <GI50>
> 8.2 µM (inactive)

$$$$
>  <compound>
CC(NC(=N)N)C(=O)O (stereo not given)

>  <GI50>
> 100 µM (inactive)

$$$$
>  <compound>
CC(C)=C=CC(C)(C)NS(=O)(=O)NC(C)(C)C=C=C(C)C

>  <GI50>
> 100 µM (inactive)

$$$$
>  <compound>
COc1cccc2nc3c(C(=O)NCCN(C)C)cccc3cc12

>  <GI50>
1.12 µM (active)

$$$$
